The following molecules are listed with their measured Dmax values.
System Tested: EGFR L858R/T790M/C797S (BaF3-LTC cells) (Homo sapiens, UniProt P00533, C797S/L858R/T790M)
Construct: expressed in transfected cells; host or cells: BaF3
Sequence (P00533 25-1210 T790M/C797S/L858R): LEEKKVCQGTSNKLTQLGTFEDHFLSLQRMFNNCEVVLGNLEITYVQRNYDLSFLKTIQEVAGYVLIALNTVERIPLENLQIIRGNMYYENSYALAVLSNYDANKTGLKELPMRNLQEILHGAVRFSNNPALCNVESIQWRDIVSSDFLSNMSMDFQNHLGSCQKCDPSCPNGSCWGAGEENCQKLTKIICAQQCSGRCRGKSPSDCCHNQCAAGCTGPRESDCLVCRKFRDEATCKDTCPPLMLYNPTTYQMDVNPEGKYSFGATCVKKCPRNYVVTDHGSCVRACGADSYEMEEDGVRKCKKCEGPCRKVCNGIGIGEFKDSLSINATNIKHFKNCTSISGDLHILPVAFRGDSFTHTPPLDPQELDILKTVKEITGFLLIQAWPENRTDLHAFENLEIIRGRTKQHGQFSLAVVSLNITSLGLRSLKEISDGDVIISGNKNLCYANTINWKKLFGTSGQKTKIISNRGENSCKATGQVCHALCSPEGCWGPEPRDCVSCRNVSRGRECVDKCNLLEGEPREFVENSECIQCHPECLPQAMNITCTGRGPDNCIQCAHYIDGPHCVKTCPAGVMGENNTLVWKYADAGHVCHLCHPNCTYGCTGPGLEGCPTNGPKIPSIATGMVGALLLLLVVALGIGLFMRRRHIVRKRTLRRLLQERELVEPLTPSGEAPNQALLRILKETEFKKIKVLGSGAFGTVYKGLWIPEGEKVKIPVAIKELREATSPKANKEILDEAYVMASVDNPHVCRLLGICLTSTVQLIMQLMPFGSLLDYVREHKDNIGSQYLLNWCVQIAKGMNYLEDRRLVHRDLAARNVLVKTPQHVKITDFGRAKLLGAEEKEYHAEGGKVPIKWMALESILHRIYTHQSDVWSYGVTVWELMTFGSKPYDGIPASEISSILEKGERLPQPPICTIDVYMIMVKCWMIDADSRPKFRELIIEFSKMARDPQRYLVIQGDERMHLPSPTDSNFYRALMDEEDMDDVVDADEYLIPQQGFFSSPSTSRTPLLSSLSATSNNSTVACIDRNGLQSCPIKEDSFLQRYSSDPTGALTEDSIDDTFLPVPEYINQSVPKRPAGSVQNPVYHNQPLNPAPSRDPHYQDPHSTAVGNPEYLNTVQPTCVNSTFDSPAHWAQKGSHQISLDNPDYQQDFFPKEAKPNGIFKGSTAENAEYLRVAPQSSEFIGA
Assay Protocol: EGFR degradation HTRF assay, BaF3-LTC cells
Type: cell-based
Stated Conditions: BaF3-LTC cells; maximum percentage of inhibition (degradation); read-out: Dmax (%) BaF3-LTC
Readout: Dmax (%)

Molecule	Recorded Value
CCOc1cc(N2CCC(N3CCN(CCc4ccc(F)c5c4n(CC)c(=O)n5C4CCC(=O)NC4=O)CC3)CC2)c(CC)cc1Nc1ncc(Br)c(Nc2ccc3c(=O)n(CC)ncc3c2P(C)(C)=O)n1 (centres unmarked) [Example 594]	85.5
CCc1ccc2c(P(C)(C)=O)c(Nc3nc(Nc4cc(CC)c(N5CCC(N6CCN(CCc7c(F)ccc8c7n(C)c(=O)n8C7CCC(=O)NC7=O)CC6)CC5)cc4OC)ncc3Br)ccc2n1 (centres unmarked) [Example 452]	89.7
CCc1cc(Nc2ncc(Br)c(Nc3ccc4nc(COC)ccc4c3P(C)(C)=O)n2)c(OC)cc1N1CCC(N2CCN(CCc3cc(F)c(C4CCC(=O)NC4=O)c(F)c3)CC2)CC1 (centres unmarked) [Example 690]	90.6
CCc1ccc2c(P(C)(C)=O)c(Nc3nc(Nc4cc(CC)c(N5CCC(N6CCC(CCc7cc(F)c(C8CCC(=O)NC8=O)c(F)c7)CC6)CC5)cc4OC)ncc3Br)ccc2n1 (centres unmarked) [Example 583]	92.9
CCc1ccc2c(P(C)(C)=O)c(Nc3nc(Nc4cc(CC)c(N5CCC(N6CCN(CCc7cc(C)cc8c7oc(=O)n8C7CCC(=O)NC7=O)CC6)CC5)cc4OC)ncc3Br)ccc2n1 (centres unmarked) [Example 442]	87

----------
System: EGFR Del19/T790M/C797S (H1975-clone #28)
Assay Protocol: EGFR degradation HTRF assay, H1975-clone #28 DTC cells
Assay type: cell-based
Stated Conditions: H1975 # 28 DTC cells; maximum percentage of inhibition (degradation)
// label = rule met if Dmax (%) H1975 # 28 DTC is not less than 80%, otherwise rule not met

Molecule	System Tested	Class
CCc1cc(Nc2ncc(Br)c(Nc3ccc4nc(C)ccc4c3P(C)(C)=O)n2)c(OC)cc1N1CCC(N2CCN(C(=O)C3CCN(c4cc(F)c(C5CCC(=O)NC5=O)c(F)c4)CC3)CC2)CC1 (stereo not shown) [Example 517]	EGFR Del19/T790M/C797S (H1975-clone #28)	rule not met
CCOc1cc(N2CCC(N3CCN(CCc4cc(F)c(F)c5c4n(CC)c(=O)n5C4CCC(=O)NC4=O)CC3)CC2)c(CC)cc1Nc1ncc(Br)c(Nc2ccc3c(=O)n(CC)ncc3c2P(C)(C)=O)n1 (stereo not shown) [Example 743]	EGFR Del19/T790M/C797S (H1975-clone #28)	rule not met
CCc1cc(Nc2ncc(Br)c(Nc3ccc4nc(C)ccc4c3P(C)(C)=O)n2)c(OC2CC2)cc1N1CCC(N2CCN(CC3CN(c4cccc5c4oc(=O)n5C4CCC(=O)NC4=O)C3)CC2)CC1 (stereo not shown) [Example 600]	EGFR Del19/T790M/C797S (H1975-clone #28)	rule met
CCc1ccc2c(P(C)(C)=O)c(Nc3nc(Nc4cc(CC)c(N5CCC(N6CCN(C(=O)[C@@H]7CCN(c8cc(F)c([C@H]9CCC(=O)NC9=O)c(F)c8)C7)CC6)CC5)cc4OC)ncc3Br)ccc2n1 [Example 489]	EGFR Del19/T790M/C797S (H1975-clone #28)	rule met
CCc1cc(Nc2ncc(C(F)(F)F)c(Nc3ccc4nc(C)ccc4c3P(C)(C)=O)n2)c(OC)cc1N1CCC(N2CCN(CCc3cc(F)c(C4CCC(=O)NC4=O)c(F)c3)CC2)CC1 (stereo not shown) [Example 689]	EGFR Del19/T790M/C797S (H1975-clone #28)	rule not met
CCOc1cc(N2CCC(N3CCN(CCc4cc(F)c([C@H]5CCC(=O)NC5=O)c(F)c4)CC3)CC2)c(CC)cc1Nc1nccc(Nc2cc(F)c3nc(CC)ccc3c2P(C)(C)=O)n1 [Example 591]	EGFR Del19/T790M/C797S (H1975-clone #28)	rule not met
CCOc1cc(N2CCC(N3CCN(CCOCCc4cccc5c4oc(=O)n5C4CCC(=O)NC4=O)CC3)CC2)c(CC)cc1Nc1ncc(Br)c(Nc2ccc3nc(CC)ccc3c2P(C)(C)=O)n1 (stereo not shown) [Example 619]	EGFR Del19/T790M/C797S (H1975-clone #28)	rule not met
CCc1ccc2c(P(C)(C)=O)c(Nc3nc(Nc4cc(CC)c(N5CCC(N6CCN(C(=O)[C@@H]7CCN(c8cc(F)c([C@H]9CCC(=O)NC9=O)c(F)c8)C7)CC6)CC5)cc4OC)ncc3Br)cc(F)c2n1 [Example 533]	EGFR Del19/T790M/C797S (H1975-clone #28)	rule met
CCOc1cc(N2CCC(N3CCN(C(=O)[C@@H]4CCN(c5cc(F)cc6c5oc(=O)n6C5CCC(=O)NC5=O)C4)CC3)CC2)c(CC)cc1Nc1ncc(Br)c(Nc2ccc3nc(CC)ccc3c2P(C)(C)=O)n1 (stereo partly shown) [Example 477]	EGFR Del19/T790M/C797S (H1975-clone #28)	rule not met
CCc1ccc2c(P(C)(C)=O)c(Nc3nc(Nc4cc(CC)c(N5CCC(N6CCN(CCc7cc(F)c(C8CCC(=O)NC8=O)c(F)c7)CC6)CC5)cc4OC)ncc3Br)ccc2n1 (stereo not shown) [Example 485]	EGFR Del19/T790M/C797S (H1975-clone #28)	rule not met
CCOc1cc(N2CCC(N3CCN(CC4CCN(c5cc(F)cc6c5oc(=O)n6C5CCC(=O)NC5=O)CC4)CC3)CC2)c(CC)cc1Nc1ncc(Br)c(Nc2ccc3nc(CC)ccc3c2P(C)(C)=O)n1 (stereo not shown) [Example 621]	EGFR Del19/T790M/C797S (H1975-clone #28)	rule not met
COc1cc(N2CCC3(CCN(C(=O)[C@@H]4CCN(c5cc(F)c([C@H]6CCC(=O)NC6=O)c(F)c5)C4)CC3)CC2)c(C)cc1Nc1ncc(Br)c(Nc2ccc3nccnc3c2P(C)(C)=O)n1 [Example 667]	EGFR Del19/T790M/C797S (H1975-clone #28)	rule not met
CCc1cc(Nc2ncc(Br)c(Nc3ccc4nc(C)ccc4c3P(C)(C)=O)n2)c(OC)cc1N1CCC(N2CCN(C(=O)[C@@H]3CCN(c4cc(F)c([C@H]5CCC(=O)NC5=O)c(F)c4)C3)[C@H](CO)C2)CC1 [Example 675]	EGFR Del19/T790M/C797S (H1975-clone #28)	rule met
CCc1cc(Nc2ncc(Br)c(Nc3ccc4nc(C(C)(C)O)ccc4c3P(C)(C)=O)n2)c(OC)cc1N1CCC(N2CCN(C(=O)[C@@H]3CCN(c4cc(F)c(C5CCC(=O)NC5=O)c(F)c4)C3)CC2)CC1 (stereo partly shown) [Example 680]	EGFR Del19/T790M/C797S (H1975-clone #28)	rule met
